- Target of assay: T1, Histidine-tagged human CD40 protein (hCD40-His) (human, UniProt P25942 21-193)
- T1 construct: not shown: histidine tag
- T1 sequence (P25942 21-193 limits assumed): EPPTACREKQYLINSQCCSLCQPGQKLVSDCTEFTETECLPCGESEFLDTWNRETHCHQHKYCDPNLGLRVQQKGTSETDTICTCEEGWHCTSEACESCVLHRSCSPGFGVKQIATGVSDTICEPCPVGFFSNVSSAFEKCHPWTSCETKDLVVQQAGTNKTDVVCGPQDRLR
- Procedure text: SPR, Biacore T200; antibody on Protein A chip, hCD40-His injected; 1:1 fit
Classify by measured koff: Fulfilled if it is equal to or exceeds 0.02 s⁻¹, Not fulfilled if it is smaller.

Binder	Class name
6A7-H4K1-IgG4 (antibody, V domains shown, Humanized) VH: QVQLVQSGAEVKKPGASVKLSCKASGYTFISYYIYWVKQAPGQGLEWIGGINPRNGGTNFNEKFKSRATLTVDTSISTAYMELSRLRSEDTAVYYCTRHGNGVYWGQGTTLTVSS VL: DVVMTQSPLSLPVTLGQPASISCRSSQSLLHSNGNTYLHWFQQRPGQSPRHLIYQVSNRFSGVPDRFSGSGSGTDFTLKISRVEAEDVGVYYCSQTTHVPWTFGGGTKVEIK	Not fulfilled
7F10-H1K1-IgG4 (antibody, V domains shown, Humanized) VH: EVQLVESGGGLVQPGGSLRLSCATSGFTFSDYYMYWVRQAPGKRLEWVAYISYGGDSTFYPDTVRGRFTISRDNAKNSLYLQMNSLRAEDTAVYYCARPAPSAHSYYLDYWGQGTLLTVSS VL: DIQMTQSPSSLSASVGDRVTITCRASQDISNYLNWYQQKPGGAVKLLIYYTSRLHSGLPSRFSGSGSGTDFTFTISSLQPEDIATYYCQQGKTLPFTFASGTKLEIK	Fulfilled
4H6-H1K4-IgG4 (antibody, V domains shown, Humanized) VH: QVQLQESGPGLVKPSQTLSLTCTVSGDSVSSGYWNWIRKHPGKKLEWIGFISYSGSTYYTPSLKSRVTISRDTSKNQFSLKLSSVTAADTAVYYCARFRRYDDGVDYWGQGTLVTVSS VL: DIQMTQSPSAMSASVGDRVTLTCRASHEISGYLSWIQQKPGGTIKRLINAASTLASGVPSRFSGSRSGTEYTLTISSLQPEDFADYYCLQYSSYPWTFGGGTKLEIK	Fulfilled
6A7-H1K3-IgG4 (antibody, V domains shown, Humanized) VH: QVQLVQSGAEVKKPGASVKVSCKASGYTFISYYIYWVRQAPGQGLEWMGGINPRNGGTNFNEKFKSRVTLTVDTSISTAYMELSRLRSEDTAVYYCARHGNGVYWGQGTTVTVSS VL: DVVMTQSPLSLPVTLGDPASISCRSSQSLLHSNGNTYLHWYQQRPGQSPNHLIYQVSNRFSGVPDRFSGSGSGTDFTLKISRVEAEDVGVYFCSQTTHVPWTFGGGTKLEIK	Not fulfilled
4H6-H3K1-IgG4 (antibody, V domains shown, Humanized) VH: EVQLQESGPGLVKPSQTLSLTCTVSGDSVSSGYWNWIRKHPGKKLEYMGFISYSGSTYYTPSLKSRITISRDTSKNQFSLKLSSVTAADTAVYFCARFRRYDDGVDYWGQGTLVTVSS VL: DIQMTQSPSAMSASVGDRVTITCRASHEISGYLSWFQQKPGGVIKRLINAASTLASGVPSRFSGSRSGTEFTLTISSLQPEDFATYYCLQYSSYPWTFGGGTKLEIK	Fulfilled
7F10-H3K4-IgG4 (antibody, V domains shown, Humanized) VH: EVKLVESGGGLVQPGGSLRLSCATSGFTFSDYYMYWVRQAPEKRLEWVAYISYGGDSTFYPDTVRGRFTISRDNAKNALYLQMSRLKAEDTAVYYCARPAPSAHSYYLDYWGQGTTLTVSS VL: DIQMTQSTSSLSASVGDRVTITCRASQDISNYLNWYQQKPDGTVKLLIYYTSRLHSGLPSRFSGSGSGTDYTLTISSLQQEDIATYYCQQGKTLPFTFASGTKLEIK	Fulfilled
7F10-H1K2-IgG4 (antibody, V domains shown, Humanized) VH: EVQLVESGGGLVQPGGSLRLSCATSGFTFSDYYMYWVRQAPGKRLEWVAYISYGGDSTFYPDTVRGRFTISRDNAKNSLYLQMNSLRAEDTAVYYCARPAPSAHSYYLDYWGQGTLLTVSS VL: DIQMTQSPSSLSASVGDRVTITCRASQDISNYLNWYQQKPGGAVKLLIYYTSRLHSGLPSRFSGSGSGTDYTFTISSLQPEDIATYYCQQGKTLPFTFASGTKLEIK	Fulfilled
6A7-H4K2-IgG4 (antibody, V domains shown, Humanized) VH: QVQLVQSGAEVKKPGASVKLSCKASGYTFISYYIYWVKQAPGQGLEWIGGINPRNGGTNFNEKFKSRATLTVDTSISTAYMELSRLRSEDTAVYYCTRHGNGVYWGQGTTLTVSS VL: DVVMTQSPLSLPVTLGQPASISCRSSQSLLHSNGNTYLHWYQQRPGQSPNHLIYQVSNRFSGVPDRFSGSGSGTDFTLKISRVEAEDVGVYFCSQTTHVPWTFGGGTKVEIK	Not fulfilled
6A7-H2K2-IgG4 (antibody, V domains shown, Humanized) VH: QVQLVQSGAEVKKPGASVKVSCKASGYTFISYYIYWVRQAPGQGLEWIGGINPRNGGTNFNEKFKSRATLTVDTSISTAYMELSRLRSEDTAVYYCARHGNGVYWGQGTTVTVSS VL: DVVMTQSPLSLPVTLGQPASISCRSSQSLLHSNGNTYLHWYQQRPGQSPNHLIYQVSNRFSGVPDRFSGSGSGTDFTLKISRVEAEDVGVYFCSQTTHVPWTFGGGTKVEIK	Not fulfilled
